- System: DPX2 cells
- EXPERIMENTAL_SETUP: 6.25 μM, 24 h
Entries and their DPX2 Viability @ 6.25 μM values follow.
Provide the reading as a plain figure in %.

{"columns": ["MOLECULE", "SYSTEM_TESTED", "ATTRIBUTE_MEASURED", "UNITS_SYMBOL", "ASSAY_RESULT"],
 "data": [
  ["CO[C@H]1/C=C/O[C@@]2(C)Oc3c(C)c(O)c4c(=O)c(c5oc6cc(N7CCN(CC(C)C)CC7)cc(OCc7ccc(CN8CCN(C)CC8)cc7)c6nc-5c4c3C2=O)NC(=O)/C(C)=C\\C=C\\[C@H](C)[C@H](O)[C@@H](C)[C@@H](O)[C@@H](C)[C@H](OC(C)=O)[C@@H]1C [Compound 17p]", "DPX2 cells", "DPX2 Viability @ 6.25 μM", "%", 116]
]}

Next, consider the following molecule.
Consider the molecule shown here: CO[C@H]1/C=C/O[C@@]2(C)Oc3c(C)c(O)c4c(=O)c(c5oc6cccc(OCCCCN7CCOCC7)c6nc-5c4c3C2=O)NC(=O)/C(C)=C\C=C\[C@H](C)[C@H](O)[C@@H](C)[C@@H](O)[C@@H](C)[C@H](OC(C)=O)[C@@H]1C What is its recorded DPX2 Viability @ 6.25 μM? 81

----------
- System: DPX2 cells
- EXPERIMENTAL_SETUP: human
Entries and their DPX2 Viability @ 25 μM values follow.
Provide the reading as a plain figure in %.

{"columns": ["COMPOUND", "DPX2 Viability @ 25 μM [%]"],
 "data": [
  ["CO[C@H]1/C=C/O[C@@]2(C)Oc3c(C)c(O)c4c(=O)c(c5oc6cc(N7CCN(C(=O)C(C)(C)C)CC7)cc(C)c6nc-5c4c3C2=O)NC(=O)/C(C)=C\\C=C\\[C@H](C)[C@H](O)[C@@H](C)[C@@H](O)[C@@H](C)[C@H](OC(C)=O)[C@@H]1C [Compound 26f]", 102]
]}

Next, consider the following compound.
Consider the compound shown here: CO[C@H]1/C=C/O[C@@]2(C)Oc3c(C)c(O)c4c(=O)c(c5oc6cc(N7CCN(CC(C)C)CC7)cc(N7CCN(CC(C)C)CC7)c6nc-5c4c3C2=O)NC(=O)/C(C)=C\C=C\[C@H](C)[C@H](O)[C@@H](C)[C@@H](O)[C@@H](C)[C@H](OC(C)=O)[C@@H]1C [Compound 17u] What is its recorded DPX2 Viability @ 25 μM? 90

----------
# collection of MIC values tested on MTB H37Rv ATCC 27294
Provide the reading as a plain figure in µM.

Consider the compound shown here: CO[C@H]1/C=C/O[C@@]2(C)Oc3c(C)c(O)c4c(=O)c(c5oc6cc(N7CCC(C(=O)O)CC7)cc(OCc7ccc(CN8CCOCC8)cc7)c6nc-5c4c3C2=O)NC(=O)/C(C)=C\C=C\[C@H](C)[C@H](O)[C@@H](C)[C@@H](O)[C@@H](C)[C@H](OC(C)=O)[C@@H]1C [Compound 17k] What is its recorded MIC? 0.3

Thanks! And CO[C@H]1/C=C/O[C@@]2(C)Oc3c(C)c(O)c4c(=O)c(c5oc6cc(N7CCN(CC(=O)O)CC7)cc(OCc7ccc(CN8CCOCC8)cc7)c6nc-5c4c3C2=O)NC(=O)/C(C)=C\C=C\[C@H](C)[C@H](O)[C@@H](C)[C@@H](O)[C@@H](C)[C@H](OC(C)=O)[C@@H]1C [Compound 17i] ? 0.026

Thanks! And CO[C@H]1/C=C/O[C@@]2(C)Oc3c(C)c(O)c4c(=O)c(c5oc6cc(N7CCN(C)CC7)cc(OCCCCN7CCN(C(=O)Cn8ccnc8)CC7)c6nc-5c4c3C2=O)NC(=O)/C(C)=C\C=C\[C@H](C)[C@H](O)[C@@H](C)[C@@H](O)[C@@H](C)[C@H](OC(C)=O)[C@@H]1C [Compound 6c] ? 0.039

Thanks! And CO[C@H]1/C=C/O[C@@]2(C)Oc3c(C)c(O)c4c(=O)c(c5oc6cc(N7CCN(CC(C)C)CC7)cc(OCc7ccc(CN8CCN(C(=O)Cn9ccnc9)CC8)cc7)c6nc-5c4c3C2=O)NC(=O)/C(C)=C\C=C\[C@H](C)[C@H](O)[C@@H](C)[C@@H](O)[C@@H](C)[C@H](OC(C)=O)[C@@H]1C [Compound 17c] ? 0.023
